- Measurement Protocol: in vitro
- Assay Context: PAMPA, pH 7.4
# Papp per entry
The response must be a number in ×10⁻⁶ cm/s with no trailing unit.

Entry CC(C)NCC(O)COc1cccc2ccccc12 (centres unmarked) [Promanolol, propanolol] , Papp reported as 7.8

Notebook: CCN1CCCC1CNC(=O)c1cc(S(=O)(=O)CC)c(NC)cc1OC (centres unmarked) [Compound 102] , Papp read as 0.0052

====

- Measured On: α-2A(h) (Homo sapiens (Human), UniProt P08913)
- Sequence (P08913 whole entry): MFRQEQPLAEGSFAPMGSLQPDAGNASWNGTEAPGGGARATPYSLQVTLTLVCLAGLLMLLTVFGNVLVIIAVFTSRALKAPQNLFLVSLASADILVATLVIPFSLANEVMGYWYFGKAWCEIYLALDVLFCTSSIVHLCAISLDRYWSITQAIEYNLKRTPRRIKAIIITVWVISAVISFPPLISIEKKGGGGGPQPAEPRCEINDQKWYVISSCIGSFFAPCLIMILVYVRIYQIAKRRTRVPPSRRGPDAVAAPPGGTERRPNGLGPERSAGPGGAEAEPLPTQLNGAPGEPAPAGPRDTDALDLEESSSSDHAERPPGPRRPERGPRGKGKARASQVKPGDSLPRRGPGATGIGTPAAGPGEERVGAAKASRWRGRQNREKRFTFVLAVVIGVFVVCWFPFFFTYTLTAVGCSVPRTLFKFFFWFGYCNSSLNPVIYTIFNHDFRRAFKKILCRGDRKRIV
Experimental Endpoint: pKi
A value of pKi is the negative decimal logarithm of a concentration given in moles per litre.

Note to self: pKi of CCN1CCCC1CNC(=O)c1cc(S(=O)(=O)CC)c(NC)cc1OC (stereo not shown) with α-2A(h) (Homo sapiens (Human), UniProt P08913) was 6.66

====

- Measured On: 5-HT7 (Homo sapiens (Human))
- Sequence (P34969 whole entry, species assumed): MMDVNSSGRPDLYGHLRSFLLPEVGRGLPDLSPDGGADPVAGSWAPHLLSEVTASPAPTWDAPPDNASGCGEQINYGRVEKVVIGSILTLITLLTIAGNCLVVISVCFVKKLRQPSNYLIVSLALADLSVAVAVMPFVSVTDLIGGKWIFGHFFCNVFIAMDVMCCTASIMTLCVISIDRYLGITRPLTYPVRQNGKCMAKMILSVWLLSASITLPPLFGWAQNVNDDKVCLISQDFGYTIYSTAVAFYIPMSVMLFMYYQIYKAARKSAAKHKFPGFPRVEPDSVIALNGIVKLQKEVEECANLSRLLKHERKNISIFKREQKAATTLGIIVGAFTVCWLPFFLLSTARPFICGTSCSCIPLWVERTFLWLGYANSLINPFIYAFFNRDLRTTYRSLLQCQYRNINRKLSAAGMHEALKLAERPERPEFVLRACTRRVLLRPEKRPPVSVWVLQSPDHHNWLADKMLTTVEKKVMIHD
Experimental Endpoint: Ki
Answer shape: numeric part, then the unit.

The compound CCN1CCCC1CNC(=O)c1cc(S(=O)(=O)CC)c(NC)cc1OC (stereo not shown) , tested on 5-HT7 (Homo sapiens (Human)), showed Ki of 27 nM

====

Here's what we have: pKi numbers for 5-HT2a (agonist) (Homo sapiens (Human), UniProt P28223).
By convention, pKi is the negative base-10 log of a molar concentration.

Molecule | pKi
CCN1CCCC1CNC(=O)c1cc(S(=O)(=O)CC)c(NC)cc1OC (centres unmarked) | 6.70

Turning now to a further record.
I looked up `CCN1CCC[C@H]1CNC(=O)c1cc(S(=O)(=O)CC)c(NC)cc1OC` and its pKi for 5-HT2a (agonist) (Homo sapiens (Human), UniProt P28223) was 6.39

====

- Measured On: α2 (non-selective)
- Measurement Protocol: Reference ligand displacement, α2 (non-selective)
- Format: binding
- Assay Context: α-2A (non-selective); reference ligand prazosin
Experimental Endpoint: Ki (µM)
// return numeric value only (unit: µM, not printed)

Compound | Ki (µM)
CCN1CCC[C@H]1CNC(=O)c1cc(S(=O)(=O)CC)c(NC)cc1OC | 0.0067

We next turn to a different compound, shown below.
Value of Ki reported for the compound CCN1CCCC1CNC(=O)c1cc(S(=O)(=O)CC)c(NC)cc1OC (centres unmarked) is 0.041

====

- Measured On: D2S (Homo sapiens (Human), UniProt P14416)
- Sequence (P14416 other isoform, or with tags, fused parts or gaps): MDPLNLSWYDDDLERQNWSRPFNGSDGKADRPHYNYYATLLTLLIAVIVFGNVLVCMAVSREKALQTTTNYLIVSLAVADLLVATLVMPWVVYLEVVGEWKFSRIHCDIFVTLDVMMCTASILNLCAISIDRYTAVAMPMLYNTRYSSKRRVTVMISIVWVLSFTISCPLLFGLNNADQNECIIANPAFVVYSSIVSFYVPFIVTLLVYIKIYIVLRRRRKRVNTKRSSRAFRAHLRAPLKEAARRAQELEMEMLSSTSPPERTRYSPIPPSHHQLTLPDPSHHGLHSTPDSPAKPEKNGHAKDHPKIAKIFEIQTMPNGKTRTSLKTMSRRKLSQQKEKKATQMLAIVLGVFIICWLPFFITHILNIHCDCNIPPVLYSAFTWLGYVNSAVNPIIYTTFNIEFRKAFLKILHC
Experimental Endpoint: IC50 (nM)
State just the number; it will be interpreted in nM.

The reported IC50 value, D2S (Homo sapiens (Human), UniProt P14416), for `CCN1CCC[C@H]1CNC(=O)c1cc(S(=O)(=O)CC)c(NC)cc1OC` reads 1.4

====

- Measured On: 5-HT2a (antagonist) (Homo sapiens (Human))
- Sequence (P28223 whole entry, species assumed): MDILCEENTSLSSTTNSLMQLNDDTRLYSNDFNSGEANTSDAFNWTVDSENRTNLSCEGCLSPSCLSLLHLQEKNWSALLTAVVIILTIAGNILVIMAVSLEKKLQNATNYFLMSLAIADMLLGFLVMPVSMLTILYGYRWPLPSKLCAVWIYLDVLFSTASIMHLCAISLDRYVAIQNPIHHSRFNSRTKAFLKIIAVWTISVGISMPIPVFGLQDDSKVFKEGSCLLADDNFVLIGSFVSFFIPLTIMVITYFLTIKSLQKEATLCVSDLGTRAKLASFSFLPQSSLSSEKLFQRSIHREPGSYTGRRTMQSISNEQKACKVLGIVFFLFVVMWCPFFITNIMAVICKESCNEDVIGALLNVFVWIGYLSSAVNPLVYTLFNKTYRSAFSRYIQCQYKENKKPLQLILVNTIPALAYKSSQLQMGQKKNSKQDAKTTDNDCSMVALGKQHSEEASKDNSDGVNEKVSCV
Experimental Endpoint: IC50 (nM)
Answer in nM, number only, no unit symbol.

IC50 on 5-HT2a (antagonist) (Homo sapiens (Human)) for `CCN1CCC[C@H]1CNC(=O)c1cc(S(=O)(=O)CC)c(NC)cc1OC` is 980

====

- Measured On: D3 (Homo sapiens (Human), UniProt P35462)
- Sequence (P35462 whole entry): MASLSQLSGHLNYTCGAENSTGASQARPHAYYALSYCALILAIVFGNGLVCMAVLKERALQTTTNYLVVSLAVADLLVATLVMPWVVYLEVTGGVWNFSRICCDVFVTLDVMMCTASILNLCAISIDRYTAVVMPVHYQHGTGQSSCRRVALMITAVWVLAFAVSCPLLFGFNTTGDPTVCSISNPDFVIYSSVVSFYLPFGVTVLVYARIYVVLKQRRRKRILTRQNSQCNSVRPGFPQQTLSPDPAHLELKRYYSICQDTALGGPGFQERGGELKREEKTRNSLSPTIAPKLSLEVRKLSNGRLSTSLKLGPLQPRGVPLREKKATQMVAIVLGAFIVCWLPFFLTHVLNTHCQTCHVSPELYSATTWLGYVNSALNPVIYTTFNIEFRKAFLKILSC
- Measurement Protocol: Reference ligand displacement, D3
- Format: binding
- Assay Context: (+) butaclamol
Experimental Endpoint: pIC50
The meaning of pIC50 here: minus log10 of the concentration in molar units.

Note to self: pIC50 recorded for `CCN1CCC[C@H]1CNC(=O)c1cc(S(=O)(=O)CC)c(NC)cc1OC` was 8.26

====

- Measured On: dopamine D2 receptors (Homo sapiens (Human), UniProt P14416)
- Sequence (P14416 whole entry): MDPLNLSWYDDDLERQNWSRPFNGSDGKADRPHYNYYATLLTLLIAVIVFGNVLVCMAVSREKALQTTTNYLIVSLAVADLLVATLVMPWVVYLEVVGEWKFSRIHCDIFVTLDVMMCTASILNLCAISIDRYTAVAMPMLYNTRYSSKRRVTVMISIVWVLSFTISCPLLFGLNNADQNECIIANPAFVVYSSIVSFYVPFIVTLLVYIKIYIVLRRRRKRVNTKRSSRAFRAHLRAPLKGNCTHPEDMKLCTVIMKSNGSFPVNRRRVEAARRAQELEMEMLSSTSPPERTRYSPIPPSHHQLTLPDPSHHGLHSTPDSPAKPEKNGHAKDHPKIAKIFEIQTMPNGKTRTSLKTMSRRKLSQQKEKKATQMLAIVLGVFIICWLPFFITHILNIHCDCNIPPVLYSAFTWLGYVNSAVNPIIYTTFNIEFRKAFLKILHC
- Measurement Protocol: Dopamine D2 receptor membrane preparation, 3H spiperone binding
- Assay Context: membrane based assay, 0.1 nM 3H spiperone
Experimental Endpoint: IC50 (nM)
Output spec: scalar in nM, unitless text.

# IC50 (compound: CCN1CCCC1CNC(=O)c1cc(S(=O)(=O)CC)c(NC)cc1OC (stereo not shown) ) is 8.2

====

- Measured On: dopamine D2 receptors (Homo sapiens (Human))
- Measurement Protocol: Dopamine D2 receptor cell-based assay (calcium fluorescence, dopamine at EC80)
Experimental Endpoint: IC50 (nM)
Write it as a number; the unit nM goes unstated.

CCN1CCCC1CNC(=O)c1cc(S(=O)(=O)CC)c(NC)cc1OC (stereo not shown) [Compound 102] has a reported IC50 of 8.9

====

- Measured On: UniProtKB P14416
Experimental Endpoint: Ki (nM)
Numbers only here, please. The scale is nM.

Result for `CCN1CCC[C@H]1CNC(=O)c1cc(S(=O)(=O)CC)c(NC)cc1OC` , tested on UniProtKB P14416, Ki: 0.56

====

Catalogue of pIC50 readings, one per entry.
- Measured On: α2 (non-selective)
- Measurement Protocol: Reference ligand displacement, α2 (non-selective)
- Assay Context: α-2A (non-selective); reference ligand prazosin
Scale explanation: pIC50 corresponds to minus log10 of a concentration expressed in moles per litre.

Molecule | Measured On | pIC50
CCN1CCC[C@H]1CNC(=O)c1cc(S(=O)(=O)CC)c(NC)cc1OC | α2 (non-selective) | 6.82

Measured on α2 (non-selective), CCN1CCCC1CNC(=O)c1cc(S(=O)(=O)CC)c(NC)cc1OC (centres unmarked) has a documented pIC50 of 7.02

====

- Measured On: 5-HT2a (antagonist) (Homo sapiens (Human))
Experimental Endpoint: Ki (nM)
Provide the reading as a plain figure in nM.

Item: `CCN1CCC[C@H]1CNC(=O)c1cc(S(=O)(=O)CC)c(NC)cc1OC` | System: 5-HT2a (antagonist) (Homo sapiens (Human)) | Ki: 530

====

- Measured On: 5-HT2a (agonist) (Homo sapiens (Human), UniProt P28223)
- Sequence (P28223 whole entry, species assumed): as the sequence (P28223 whole entry, species assumed) above
Experimental Endpoint: IC50 (µM)
Write down the numeric answer in µM and omit the unit.

Value of IC50 reported for the compound `CCN1CCC[C@H]1CNC(=O)c1cc(S(=O)(=O)CC)c(NC)cc1OC` is 0.55

====

- Measured On: UniProt:P35462
Experimental Endpoint: Ki (nM)
Give the number; nM is assumed, so skip it.

So for `CCN1CCC[C@H]1CNC(=O)c1cc(S(=O)(=O)CC)c(NC)cc1OC` , the logged Ki turned out to be 1.2

====

- Measurement Protocol: in vitro
- Assay Context: PAMPA, pH 5
Experimental Endpoint: Papp (×10⁻⁶ cm/s)
The figure you give is taken to be in ×10⁻⁶ cm/s; do not add the unit.

Compound | Readout Number
CCN1CCCC1CNC(=O)c1cc(S(=O)(=O)CC)c(NC)cc1OC (stereo not drawn) | 0.021
CCN1CCCC1CNC(=O)c1cc(S(=O)(=O)CC)c(N)cc1OC (stereo not drawn) [Amisulpride] | 0.00024

We next turn to a different compound, shown below.
Measured Papp of CC(C)NCC(O)COc1cccc2ccccc12 (stereo not drawn) : 0.031

====

- Measured On: α-2B(h) (Homo sapiens (Human), UniProt P18089)
- Sequence (P18089 whole entry): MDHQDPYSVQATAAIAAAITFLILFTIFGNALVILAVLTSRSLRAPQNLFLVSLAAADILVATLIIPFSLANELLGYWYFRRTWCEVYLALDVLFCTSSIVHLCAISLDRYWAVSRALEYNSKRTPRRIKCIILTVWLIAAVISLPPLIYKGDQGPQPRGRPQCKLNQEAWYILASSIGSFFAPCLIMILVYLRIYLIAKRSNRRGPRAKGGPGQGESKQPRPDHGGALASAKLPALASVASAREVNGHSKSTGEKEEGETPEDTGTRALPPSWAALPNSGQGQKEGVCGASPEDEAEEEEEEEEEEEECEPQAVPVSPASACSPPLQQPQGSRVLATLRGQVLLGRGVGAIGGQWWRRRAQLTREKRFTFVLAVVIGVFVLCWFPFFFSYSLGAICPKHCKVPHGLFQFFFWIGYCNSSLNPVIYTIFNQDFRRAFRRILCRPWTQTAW
Experimental Endpoint: Ki (nM)
Dear colleague, please return just the value in nM, with no unit written.

Reading of Ki for CCN1CCCC1CNC(=O)c1cc(S(=O)(=O)CC)c(NC)cc1OC (stereo not shown) with α-2B(h) (Homo sapiens (Human), UniProt P18089): 110
